Assay: Analytical size exclusion chromatography (percent monomer)
Assay type: physicochemical
Details: NEM-conjugated cysteine variants; SEC, Abs280 monomer region 5.5-6 minutes vs oligomer region 4-5.3 minutes
MEASURED_QUANTITY: Percent monomer (%)
Answers are plain numbers, in %.

G73C (conjugate, left off: small tags and cut ends) LPAPKNLVVSEVTEDSARLSWDDPWAFYESFLIQYQESEKVGEAIVLTVPGSERSYDLTGLKPGTEYTVSIYCVHNVYKDTNMRGLPLSAIFTT    66

Hi! Can you tell me Percent monomer for each of these molecules?
1. Q34C: cysteine variant of P54AR4-83v2 (SEQ ID NOS: 197 and 235); NEM and VC-MMAF conjugates (conjugate, NEM or vcMMAF conjugate; EGFR binding FN3 domain, NEM and VC-MMAF conjugates) MLPAPKNLVVSEVTEDSARLSWDDPWAFYESFLICYQESEKVGEAIVLTVPGSERSYDLTGLKPGTEYTVSIYGVHNVYKDTNMRGLPLSAIFTT
2. R84C (conjugate, left off: small tags and cut ends) LPAPKNLVVSEVTEDSARLSWDDPWAFYESFLIQYQESEKVGEAIVLTVPGSERSYDLTGLKPGTEYTVSIYGVHNVYKDTNMCGLPLSAIFTT
3. S70C: cysteine variant of P54AR4-83v2 (SEQ ID NOS: 211 and 249); NEM and VC-MMAF conjugates (conjugate, NEM or vcMMAF conjugate; EGFR binding FN3 domain, NEM and VC-MMAF conjugates) MLPAPKNLVVSEVTEDSARLSWDDPWAFYESFLIQYQESEKVGEAIVLTVPGSERSYDLTGLKPGTEYTVCIYGVHNVYKDTNMRGLPLSAIFTT
4. T13C (conjugate, left off: small tags and cut ends) LPAPKNLVVSEVCEDSARLSWDDPWAFYESFLIQYQESEKVGEAIVLTVPGSERSYDLTGLKPGTEYTVSIYGVHNVYKDTNMRGLPLSAIFTT
5. S20C: cysteine variant of P54AR4-83v2 (SEQ ID NOS: 195 and 233); NEM and VC-MMAF conjugates (conjugate, NEM or vcMMAF conjugate; EGFR binding FN3 domain, NEM and VC-MMAF conjugates) MLPAPKNLVVSEVTEDSARLCWDDPWAFYESFLIQYQESEKVGEAIVLTVPGSERSYDLTGLKPGTEYTVSIYGVHNVYKDTNMRGLPLSAIFTT

Response:
[97, 100, 100, 82, 94]
